# TGI annotations
Tested on: NCI-H226 lung
method summary: NCI tumour cell line growth inhibition, 48 h

Worked examples follow.
> print(dat)
                                smiles.text     value
1             NCCCCNC1(c2cc3ccccc3s2)CCCCC1     34 µM
2  CC(=O)NC1=C(NCc2ccc(Cl)cc2)C(=O)c2ccccc2C1=O   26.1 µM
3                COC(=O)CCN(CCC(=O)OC)C1CC1  > 100 µM
4  CCCCCCOc1ccc(NC2=C(Cl)C(=O)c3ncccc3C2=O)cc1   > 10 µM
5  COc1cc2c(cc1Cl)n([O-])c(C#N)c(N1CCN(c3ccc([N+](=O)[O-])cc3)CC1)[n+]2=O  > 100 µM

# TGI (compound: O=C1/C(=C/c2ccco2)NC(=S)N1CN1CCOCC1 ) is > 100 µM

###

System: HT29 colon
method summary: NCI tumour cell line growth inhibition, 48 h; in the data active means GI50 below about 0.43 µM; inactive means the rest
The reply should name one outcome from active, inactive

Please review the following examples before continuing.
> print(dat)
                                   molecule  test.target     class
1  COc1ccc(-n2c3c(c4c(CN(C)C)c(O)c(C)cc42)CCc2ccccc2C3=O)cc1   HT29 colon  inactive
2    Cc1ccc(/C(=C/C=C(C#N)C#N)Sc2ccccn2)cc1   HT29 colon  inactive
3  COc1cc2ncn(-c3cc(OCc4ccccc4S(C)(=O)=O)c(C#N)s3)c2cc1OC   HT29 colon  inactive
4  COc1cc(-c2n/c(=C\c3c(O)[nH]c4ccccc34)cc3c2=Nc2ccccc2-3)cc(OC)c1OC   HT29 colon    active
5  CN1C(=O)C(c2c[nH]c3ccccc23)=C(c2c(-c3c[nH]c4ccccc34)[nH]c3ccccc23)C1=O   HT29 colon  inactive

Which outcome was entered for the molecule CO/N=C(/COc1c(-c2ccccc2)oc2ccccc2c1=O)c1ccc(F)cc1 in this test? inactive

Which outcome was entered for the molecule CCCCCCCCCCCCCCCCn1cc[n+](Cc2ccccc2)c1C in this test? active

Which outcome was entered for the molecule COc1ccc2c(c1)[C@@]1(C)CCC3c4ccc(O)cc4CCC3C1C2 (some centres undefined) in this test? inactive

Which outcome was entered for the molecule CC(=O)OC12CC(C)C3(O)C4C=C(C)C(=O)[C@@]4(O)CC(CO)=C[C@H]3C1C2(C)C (some centres undefined) in this test? inactive

###

Test system: NCI-H23 lung
method summary: NCI tumour cell line growth inhibition, 48 h
measure name: TGI

Worked examples follow.
compound	TGI
CC(=O)NC1=C(C)C(=O)c2c(nc3n2CC[C@H]3OC(C)=O)C1=O	8.41 µM
CC(C)(NC1=NCCO1)c1ccccc1	> 100 µM
COC(=O)c1ccccc1CC(Cc1ccccc1)C(=O)OC (stereo not drawn)	> 100 µM

# TGI (compound: CN(CCN(C)C(=O)CCOS(C)(=O)=O)C(=O)CCOS(C)(=O)=O ) is > 100 µM

# TGI (compound: Cc1cc(N=C2C=C(Nc3cc(C)on3)C(=O)c3ccccc32)no1 ) is 26 µM

# TGI (compound: C[Si]12OCCCN(CCO1)CCO2 ) is > 100 µM

###

Tested on: A549 NSCLC
method summary: NCI tumour cell line growth inhibition, 48 h; in the data active means GI50 below about 0.43 µM; inactive means the rest
The reply should name one outcome from 1 (yes) for active, 0 (no) for inactive

Please review the following examples before continuing.
> print(dat)
                                smiles.text    class
1  CN1C(=O)C(c2c[nH]c3ccccc23)=C(c2c(-c3c[nH]c4ccccc34)[nH]c3ccccc23)C1=O   0 (no)
2  COc1cc2c3c(n(CCCNCCNCCCN)c(=O)c2cc1OC)-c1cc2c(cc1C3=O)OCO2   0 (no)
3  CCC[CH2][Sn]1([CH2]CCC)[O]C(=O)CN=Cc2ccccc2[O]1   0 (no)
4  CCCCCCN1CCN(Cc2ccc(N(CC)CC)cc2)C(=O)C1=O   0 (no)
5          OCc1ccc(Oc2c3ccccc3nc3occc23)cc1   0 (no)
6   Cc1cc2nc3c4cccc(O)c4n(CCN(C)C)c3nc2cc1C   0 (no)
7     N=C(N)c1ccc(-c2ccc(-c3ccc(F)cc3)o2)o1   0 (no)
8  COc1ccc(-n2c3c(c4c(CN(C)C)c(O)c(C)cc42)CCc2ccccc2C3=O)cc1   0 (no)
9  COc1ccc2c(c1)C(=O)c1c-2n(CCCN2CCOCC2)c(=O)c2cc([N+](=O)[O-])ccc12  1 (yes)

Turning now to a further record.
Which outcome was entered for the compound Oc1ccc(CN(Cc2ccc(C(F)(F)F)cc2)Cc2ccc(O)c3ncccc23)c2cccnc12 in this test? 1 (yes)

###

Test system: OVCAR-3 ovarian
method summary: NCI tumour cell line growth inhibition, 48 h; in the data active = GI50 below about 0.43 µM; inactive = the rest
The reply should name one outcome from 1 = active, -1 = inactive

Which outcome was entered for the molecule O=C1OCC2=C1C(c1cccc(C(F)(F)F)c1)c1cc3c(cc1N2CCO)CCC3 (centres undefined) in this test? 1

Which outcome was entered for the molecule COc1ccc2c(c1)C(=O)c1c-2n(CCCN2CCOCC2)c(=O)c2cc([N+](=O)[O-])ccc12 in this test? 1

Which outcome was entered for the molecule O=[N+]([O-])/C=C/c1ccc([N+](=O)[O-])cc1 in this test? -1

Which outcome was entered for the molecule O=C1CC/C(=C\COc2ccc3ccc(=O)oc3c2)O1 in this test? -1

Which outcome was entered for the molecule N/C(=N\c1nc2ccccc2s1)NC(=O)Nc1cccc2ccccc12 in this test? 1

Which outcome was entered for the molecule COc1ccc(-n2c3c(c4c(CN(C)C)c(O)c(C)cc42)CCc2ccccc2C3=O)cc1 in this test? -1

Which outcome was entered for the molecule COc1ccc(/C=C\c2cc(OC)c(OC)c(OC)c2)cc1OCC(=O)Nc1nc2ccc(OC(F)(F)F)cc2s1 in this test? -1

Which outcome was entered for the molecule COc1cc2c3c(n(C)c(=O)c2cc1OC)-c1cc2c(cc1/C3=C/[C@H](N)CCCCN)OCO2 in this test? -1

Which outcome was entered for the molecule NC(N)=N/N=C/c1c(-c2ccc(Cl)c([N+](=O)[O-])c2)nc2ccccn12 in this test? -1

###

Tested on: OVCAR-5 ovarian
method summary: NCI tumour cell line growth inhibition, 48 h
measure name: TGI (µM)
# output: bare number, implied unit µM

compound	TGI / µM
CS(=O)(=O)O.[Ag]	35
CC[C@@]1(O)C(=O)OCc2c1cc1n(c2=O)Cc2cc3c(NC(=O)CN)cccc3nc2-1	63.8
COC1/C=C/C(C)C(C(C)C(OC)C(C)CCC(=O)C(C)C(C/C=C/N(C)C=O)OC)OC(=O)/C=C/C=C(\C)CC(OC)C(OC)C2=CC(=O)O[C@@H](C(C)C(OC)CC(OC)/C=C/C(C)C(O)C1)[C@H]2O (some centres undefined)	0.623
O=[N+]([O-])/C=C/c1ccc([N+](=O)[O-])cc1	15.5

# evaluate next
# TGI (compound: COC(=O)[C@]12CC=C3O[C@@H]4OC5(CCCCC5)O[C@@H]4[C@H]3C1C(=O)C=CC2=O (some centres undefined) ) is 38.8

###

Test system: LOX IMVI melanoma
method summary: NCI tumour cell line growth inhibition, 48 h
# GI50 annotations

> print(dat)
                                   compound  measure.name     value
1  O=C1OCC2=C1C(c1cccc(C(F)(F)F)c1)c1cc3c(cc1N2CCO)CCC3 (stereo not given)          GI50  0.271 µM
2   COc1cc(/C=C2\C(=O)Nc3ccccc32)cc(OC)c1OC          GI50   16.5 µM
3  COc1cc2c3c(n(CCCNCCNCCCN)c(=O)c2cc1OC)-c1cc2c(cc1C3=O)OCO2          GI50   1.08 µM
4  COc1ccc(-c2cc(-c3nnc(SCC(=O)Nc4ccc(C(C)=O)cc4)o3)c3ccccc3n2)cc1          GI50   73.7 µM

# evaluate next
Record for COc1ccc2c(c1)[C@@]1(C)CCC3c4ccc(O)cc4CCC3C1C2 (stereo not given in full) under target or system LOX IMVI melanoma: GI50 reported as 11 µM

###

Tested on: EKVX NSCLC
method summary: NCI tumour cell line growth inhibition, 48 h
# TGI annotations

Worked examples follow.
> print(dat)
                                   molecule  measure.name     value
1             NCCCCNC1(c2cc3ccccc3s2)CCCCC1           TGI   29.1 µM
2  CCOC(=O)[C@H]1Nc2ccc(Cl)cc2[C@H]2c3ccccc3O[C@H]21           TGI  > 100 µM
3                             O=C(O)C1SCCS1           TGI  > 100 µM

# evaluate next
# TGI (molecule: CCC(=O)c1ccc2c(c1)N(CCCN1CCN(CCO)CC1)c1ccccc1S2 ) is 28.1 µM
